Measured values drawn from patent US20260184782A1 for this set.

Overview of recorded koff for various binders
# Tested system: T1, recombinant human TIGIT (human, UniProt Q495A1 22-141, limits assumed)
# T1 construct: recombinant human TIGIT used in Carterra SPR; also called hTIGIT
# T1 sequence (looked up): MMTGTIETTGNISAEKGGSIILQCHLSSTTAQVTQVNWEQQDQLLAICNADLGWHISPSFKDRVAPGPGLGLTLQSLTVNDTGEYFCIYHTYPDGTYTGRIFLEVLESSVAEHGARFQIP
# Test method notes: SPR Carterra, average
State just the number; it will be interpreted in s⁻¹.

Please review the entries below; each comes with its answer.
>  <Binder>
TIGIT-SC29 (Fc fusion, VHH-Fc fusion in assay) VHH: EVQLVESGGGLVQPGGSLRLSCAASGFTLENNMMGWFRQAPGKERELVAAIDWSGGSTIYADSVKGRFTISADNSKNTAYLQMNSLKPEDTAVYYCARGHDYGDYIAYWGQGTLVTVSS

>  <koff [s⁻¹]>
0.00287

$$$$
>  <Binder>
TIGIT-SC13 (Fc fusion, VHH-Fc fusion in assay) VHH: EVQLVESGGGLVQPGGSLRLSCAASGRTFSFMGWFRQAPGKEREWVASVLRGGYTWYADSVKGRFTISADNSKNTAYLQMNSLKPEDTAVYYCATESMDYWGQGTLVTVSS

>  <koff [s⁻¹]>
0.000199

$$$$
>  <Binder>
TIGIT-SC19 (Fc fusion, VHH-Fc fusion in assay) VHH: EVQLVESGGGLVQPGGSLRLSCAASGRTYDAMGWFRQAPGKEREWVASVLRGGYTWYADSVKGRFTISADNSKNTAYLQMNSLKPEDTAVYYCARDVDYRFDSWGQGTLVTVSS

>  <koff [s⁻¹]>
0.0012

$$$$
>  <Binder>
TIGIT-SC30 (Fc fusion, VHH-Fc fusion in assay) VHH: EVQLVESGGGLVQPGGSLRLSCAASGRSFSSDWIGWFRQAPGKERELVAAIDWSGGSALYADSVKGRFTISADNSKNTAYLQMNSLKPEDTAVYYCARVNWNNVGWFDPWGQGTLVTVSS

>  <koff [s⁻¹]>
0.0155

$$$$
>  <Binder>
TIGIT-SC12 (Fc fusion, VHH-Fc fusion in assay) VHH: EVQLVESGGGLVQPGGSLRLSCAASGRTFSAYGMGWFRQAPGKEREFVAAITPSSRTTYYADSVKGRFTISADNSKNTAYLQMNSLKPEDTAVYYCAKDNWGEWLMPWWGQGTLVTVSS

>  <koff [s⁻¹]>
0.0049

$$$$
>  <Binder>
TIGIT-SC38 (Fc fusion, VHH-Fc fusion in assay) VHH: EVQLVESGGGLVQPGGSLRLSCAASGFTFSEYPMGWFRQAPGKEREFVAVVNWNGDSTYYADSVKGRFTISADNSKNTAYLQMNSLKPEDTAVYYCARGSDWYRYWGQGTLVTVSS

>  <koff [s⁻¹]>
0.000237

$$$$
>  <Binder>
TIGIT-SC166 (Fc fusion, VHH-Fc fusion in assay) VHH: EVQLVESGGGLVQPGGSLRLSCAASGFTFDRSWMGWFRQAPGKEREWVASVLRGGYTWYADSVKGRFTISADNSKNTAYLQMNSLKPEDTAVYYCAREGSGYASDYWGQGTLVTVSS

>  <koff [s⁻¹]>
0.00147

$$$$
>  <Binder>
TIGIT-SC88 (Fc fusion, VHH-Fc fusion in assay) VHH: EVQLVESGGGLVQPGGSLRLSCAASGFTFSSDWMGWFRQAPGKEREFVAAINRSGHSTSYADSVKGRFTISADNSKNTAYLQMNSLKPEDTAVYYCARWGGVTFGGVYPLEYWGQGTLVTVSS

>  <koff [s⁻¹]>
0.00204

$$$$
>  <Binder>
TIGIT-SC184 (Fc fusion, VHH-Fc fusion in assay) VHH: EVQLVESGGGLVQPGGSLRLSCAASGFTFSPSWMGWFRQAPGKEREWVASVLRGGYTWYADSVKGRFTISADNSKNTAYLQMNSLKPEDTAVYYCTTDRGYNWNYDWGQGTLVTVSS

>  <koff [s⁻¹]>
0.014

$$$$
>  <Binder>
TIGIT-SC98 (Fc fusion, VHH-Fc fusion in assay) VHH: EVQLVESGGGLVQPGGSLRLSCAASGNTFSGGFMGWFRQAPGKEREWVASVLRGGYTWYADSVKGRFTISADNSKNTAYLQMNSLKPEDTAVYYCTTEGFDPWGQGTLVTVSS

>  <koff [s⁻¹]>
0.00137

$$$$

Field request: koff | item: TIGIT-SC65 (Fc fusion, VHH-Fc fusion in assay) VHH: EVQLVESGGGLVQPGGSLRLSCAASGFTFGNYDMGWFRQAPGKEREFVAAITGSGRSTYYADSVKGRFTISADNSKNTAYLQMNSLKPEDTAVYYCARGRIAASGTKVYWYFDLWGQGTLVTVSS
0.0249

Any idea what its koff is? The binder is TIGIT-SC174 (Fc fusion, VHH-Fc fusion in assay) VHH: EVQLVESGGGLVQPGGSLRLSCAASGFLFDSYAMGWFRQAPGKEREFVAAISWSGGSTYYADSVKGRFTISADNSKNTAYLQMNSLKPEDTAVYYCTTDALRFLEWPWWGQGTLVTVSS
0.0335

State the recorded koff for this entry: TIGIT-SC9 (Fc fusion, VHH-Fc fusion in assay) VHH: EVQLVESGGGLVQPGGSLRLSCAASGNTFSGGFMGWFRQAPGKEREWVASVLRGGYTWYADSVKGRFTISADNSKNTAYLQMNSLKPEDTAVYYCVNGYSYGRDYWGQGTLVTVSS
0.00159

Using the record for TIGIT-SC151 (Fc fusion, VHH-Fc fusion in assay) VHH: EVQLVESGGGLVQPGGSLRLSCAASGFPFSIYPMGWFRQAPGKEREFVAAISASGTLRAYADSVKGRFTISADNSKNTAYLQMNSLKPEDTAVYYCARSSSWVRIFDYWGQGTLVTVSS , report its koff.
0.00479
